molecular target: Tyrosine-protein phosphatase non-receptor type 22 (Homo sapiens); test: PTPN22 lymphoid phosphatase activity blockers – biochemical, fluorescence intensity, uHTS (AID 1779); settings: recombinant LYP phosphatase, at 11.5 µM, hits give high values;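 note: plate controls were vehicle with enzyme for no effect and no enzyme for full effect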
Hit rate of the full screen: of about 290,000 compounds, about 160 (0.055%) were called active. Only a selection was taken, and actives are over-represented in it overall.

>  <compound>
COc1ccc2[nH]c(C)c(CCNC(=S)Nc3ccccc3C)c2c1

>  <measure-unit>
%

>  <inhibition>
0.8

$$$$
>  <compound>
CCOC(=O)c1cnc2c(C)c(C)ccc2c1NCCN1CCOCC1

>  <measure-unit>
%

>  <inhibition>
-7.3

$$$$
>  <compound>
CN1CCN(S(=O)(=O)c2cccc(C(=O)NCCOc3ccccc3F)c2)CC1

>  <measure-unit>
%

>  <inhibition>
-15.4

$$$$
>  <compound>
O=S(=O)(CCCc1ccccc1)c1ncn[nH]1

>  <measure-unit>
%

>  <inhibition>
-3

$$$$
>  <compound>
CCOC(=O)N1CCN(S(=O)(=O)c2cc(Br)cc3c2N(C(C)=O)C(C)C3)CC1 (centres undefined)

>  <measure-unit>
%

>  <inhibition>
3

$$$$
>  <compound>
COc1ccc(CCNC(=O)CCC(=O)N2CCN(S(=O)(=O)c3ccccc3)CC2)cc1OC

>  <measure-unit>
%

>  <inhibition>
-4.5

$$$$
>  <compound>
Cc1[nH]c2ccccc2c1N=Nc1c(C)n(C)n(-c2ccccc2)c1=O

>  <measure-unit>
%

>  <inhibition>
94.5

$$$$
>  <compound>
O=C(O)C1CCCCC1C(=O)Nc1ccc(F)c(F)c1 (centres undefined)

>  <measure-unit>
%

>  <inhibition>
51.4

$$$$
>  <compound>
COc1ccc(NC(=S)N(CCN(C)C)C(C)c2ccncc2)cc1Cl (centres undefined)

>  <measure-unit>
%

>  <inhibition>
-7.3

$$$$
